Provide the reported Kd of each item.
- system: T1, human 5T4-His protein (human, UniProt Q13641 32-355)
- T1 construct: also called recombinant 5T4 protein (human 5T4-his tag); human 5T4 protein; not shown: His tag
- T1 sequence (looked up): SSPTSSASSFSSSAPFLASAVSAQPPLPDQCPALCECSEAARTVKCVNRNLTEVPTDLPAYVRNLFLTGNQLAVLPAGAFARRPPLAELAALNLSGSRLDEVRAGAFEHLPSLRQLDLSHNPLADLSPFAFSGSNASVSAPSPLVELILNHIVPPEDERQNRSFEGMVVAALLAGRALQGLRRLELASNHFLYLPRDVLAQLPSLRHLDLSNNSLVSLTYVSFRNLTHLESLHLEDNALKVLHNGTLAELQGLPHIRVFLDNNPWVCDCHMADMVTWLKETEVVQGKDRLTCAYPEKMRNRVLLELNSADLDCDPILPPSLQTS
- protocol: SPR Biacore, Protein A capture, 50 nM 5T4-His
Give bare numbers, in nM.

binder | Kd / nM
Hu159D5-4 (antibody, V domains shown, humanized) VH: EVQLVESGGGVVQPGRSLRLSCAASGFTFSNFGMHWVRQAPGKGLEWVAYISSGSSTFYYADSVKGRFTISRDNSKNTLYLQMNSLRAEDTAVYYCARSPAYYRYGLDYWGQGTTVTVSS VL: DIVMTQSPDSLAVSLGERATINCRASQSVSSSTFSYMHWYQQKPGQPPKLLIYSSSNLESGVPDRFSGSGSGTDFTLTISSLQAEDVAVYYCQHSWEIPYTFGGGTKVEIK | 7.07
Hu159D5-10 (antibody, V domains shown, humanized) VH: EVQLVESGGGVVQPGRSLRLSCAASGFTFSNFGMHWVRQAPGKGLEWVAYISSGSSTFYYADSVKGRFTISRDNSKNTLYLQMNSLRAEDTAVYFCARSPAYYRYGLDYWGQGTTVTVSS VL: DIVMTQSPDSLAVSLGERATINCRASQSVSSSTFSYMHWYQQKPGQPPKLLIYSSSNLESGVPDRFSGSGSGTDFTLTISSLQAEDVAVYYCQHSWEIPYTFGGGTKVEIK | 9.31

# input for lookup
Per the record, Hu159D5-12 (antibody, V domains shown, humanized) VH: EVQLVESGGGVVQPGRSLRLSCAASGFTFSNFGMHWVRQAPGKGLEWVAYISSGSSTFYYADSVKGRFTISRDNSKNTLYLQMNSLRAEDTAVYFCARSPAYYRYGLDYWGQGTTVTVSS VL: DIVLTQSPDSLAVSLGERATINCRASQSVSSSTFSYMHWYQQKPGQPPKLLIKSSSNLESGVPDRFSGSGSGTDFTLTISSLQAEDVAVYYCQHSWEIPYTFGGGTKVEIK has Kd of 1.21

Measured values drawn from patent US20250154277A1 for this set.
